Item-by-item account of pIC50
# testedSystem: Avi-KRAS WT (1-169) GppNHp/RAF1 RBD-3xFLAG (52-151) (Homo sapiens, UniProt P01116)
# Construct: Avi-KRAS WT (1-169)
# Sequence (P01116 1-169 isoform P01116-2): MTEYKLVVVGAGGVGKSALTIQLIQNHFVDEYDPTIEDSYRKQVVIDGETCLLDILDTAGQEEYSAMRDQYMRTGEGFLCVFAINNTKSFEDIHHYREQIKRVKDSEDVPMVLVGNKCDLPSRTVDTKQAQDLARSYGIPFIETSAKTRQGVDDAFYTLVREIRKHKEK
# protocolText: Raf1-KRAS WT-GppNHP disruption HTRF assay (Biological Example 1)
# Type: binding
# conditionInfo: KRAS WT, GppNHp-loaded; class symbols
pIC50: −log10 of the molar value.

| compound | testedSystem | pIC50 |
| --- | --- | --- |
| CCN(c1nc(OC[C@@]23CCCN2C[C@H](F)C3)nc2c(F)c(-c3ccc(F)c4sc(N)c(C#N)c34)c(C(F)(F)F)cc12)[C@H]1CCN(C(=O)c2cnn(C)c2)C1 (atropisomer, axis not shown) [Compound 748] | Avi-KRAS WT (1-169) GppNHp/RAF1 RBD-3xFLAG (52-151) (Homo sapiens, UniProt P01116) | > 7.00 |
| CCN(c1nc(OC[C@@]23CCCN2C[C@H](F)C3)nc2c(F)c(-c3ccc(F)c4sc(N)c(C#N)c34)c(C(F)(F)F)cc12)[C@H]1C[C@@H]2CCOC(=O)N2C1 (atropisomer, axis not shown) [Compound 665] | Avi-KRAS WT (1-169) GppNHp/RAF1 RBD-3xFLAG (52-151) (Homo sapiens, UniProt P01116) | 6.00 to 7.00 |
| C[C@@H]1[C@H](N(C)c2nc(OC[C@]34C[C@@H](F)CN3CC3(CC3)C4)nc3c(F)c(-c4ccc(F)c5sc(N)c(C#N)c45)c(Cl)cc23)CCN1C(=O)C1CC1 [Compound 593] | Avi-KRAS WT (1-169) GppNHp/RAF1 RBD-3xFLAG (52-151) (Homo sapiens, UniProt P01116) | 5.00 to 6.00 |
| CCN(c1nc(OC[C@@]23CCCN2C[C@H](F)C3)nc2c(F)c(-c3ccc(F)c4sc(N)c(C#N)c34)c(C(F)(F)F)cc12)[C@H]1CCN(C(=O)N(C)C2CC2)C1 (atropisomer, axis not shown) [Compound 583] | Avi-KRAS WT (1-169) GppNHp/RAF1 RBD-3xFLAG (52-151) (Homo sapiens, UniProt P01116) | > 7.00 |
| CCN(c1nc(OC[C@@]23CCCN2C[C@H](F)C3)nc2c(F)c(-c3ccc(F)c4sc(N)c(C#N)c34)c(C(F)(F)F)cc12)[C@H]1CCN(C(=O)C2CC(OC)C2)C1 (stereo partly drawn) [Compound 777] | Avi-KRAS WT (1-169) GppNHp/RAF1 RBD-3xFLAG (52-151) (Homo sapiens, UniProt P01116) | 6.00 to 7.00 |

// query For the compound C/C=C\C(=O)N1CC[C@H](N(CC)c2nc(OC[C@@]34CCCN3C[C@H](F)C4)nc3c(F)c(-c4ccc(F)c5sc(N)c(C#N)c45)c(C(F)(F)F)cc23)C1 (atropisomer, axis not shown) [Compound 677] , give its measured pIC50 value.
// result > 7.00

// query Please report the measured pIC50 for CCN(c1nc(OC[C@@]23CCCN2C[C@H](F)C3)nc2c(F)c(-c3ccc(F)c4sc(N)c(C#N)c34)c(C(F)(F)F)cc12)[C@H]1CC(=O)N2CCC[C@@H]12 (atropisomer, axis not shown; (aS)) [Compound 697]
// result > 7.00

// query Please look at this compound and report its pIC50: CCN(c1nc(OC[C@@]23CCCN2C[C@H](F)C3)nc2c(F)c(-c3ccc(F)c4sc(N)c(C#N)c34)c(C(F)(F)F)cc12)[C@H]1C[C@H](COC)N(C(=O)N(C)C)C1 (atropisomer, axis not shown) [Compound 717]
// result 6.00 to 7.00

// query Identify the reported pIC50 for the following entry. CCN(c1nc(OC[C@@]23CCCN2C[C@H](F)C3)nc2c(F)c(-c3ccc(F)c4sc(N)c(C#N)c34)c(C(F)(F)F)cc12)[C@H]1C[C@@H](COC)N(C(=O)C2CC2)C1 (atropisomer, axis not shown) [Compound 650]
// result 6.00 to 7.00

// query Give the reported value of pIC50 for this record: CCN(c1nc(OC[C@@]23CCCN2C[C@H](F)C3)nc2c(F)c(-c3ccc(F)c4sc(N)c(C#N)c34)c(C(F)(F)F)cc12)[C@H]1CC(=O)N(CC(F)F)C1 (atropisomer, axis not shown) [Compound 613]
// result 6.00 to 7.00

* * *

# testedSystem: Avi-KRAS G12V (1-169) GppNHp/RAF1 RBD-3xFLAG (52-151) (Homo sapiens, UniProt P01116, G12V)
# Construct: Avi-KRAS G12V (1-169)
# Sequence (P01116 1-169 isoform P01116-2 G12V): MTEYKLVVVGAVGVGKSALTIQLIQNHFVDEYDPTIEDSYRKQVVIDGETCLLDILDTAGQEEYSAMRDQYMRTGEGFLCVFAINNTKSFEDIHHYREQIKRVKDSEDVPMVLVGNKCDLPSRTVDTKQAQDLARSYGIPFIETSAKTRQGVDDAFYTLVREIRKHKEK
# protocolText: Raf1-KRAS G12V-GppNHP disruption HTRF assay (Biological Example 1)
# Format: binding
# conditionInfo: KRAS G12V, GppNHp-loaded; Table 11
pIC50: −log10 of the molar value.
Each entry below carries its recorded pIC50.

A selection of reference data follows.
| compound | result |
| --- | --- |
| N#Cc1c(N)sc2c(F)ccc(-c3c(C(F)(F)F)cc4c(N5C6CCC5COC6)nc(OC[C@@]56CCCN5C[C@H](F)C6)nc4c3F)c12 | 6.00 to 7.00 |
| N#Cc1c(N)sc2c(F)ccc(-c3c(C(F)(F)F)cc4c(N5CCN(C(=O)CO)CC5)nc(OC[C@@]56CCCN5C[C@H](F)C6)nc4c3F)c12 | 5.00 to 6.00 |
| N#Cc1c(N)sc2c(F)ccc(-c3c(C(F)(F)F)cc4c(N5CCOCC5)nc(OC[C@@]56CCCN5C[C@H](F)C6)nc4c3F)c12 (single isomer, unassigned) [Compound 198] | 6.00 to 7.00 |
| C[C@H](O)C1CCN(c2nc(OC[C@@]34CCCN3C[C@H](F)C4)nc3c(F)c(-c4ccc(F)c5sc(N)c(C#N)c45)c(C(F)(F)F)cc23)CC1 | 5.00 to 6.00 |
| CN(c1nc(OCC23CCCN2CCC3)nc2c(F)c(-c3ccc(F)c4sc(N)nc34)c(C(F)(F)F)cc12)C1CC(CO)C1 (stereo not drawn) | < 5.00 |

// query Hello, please tell me recorded pIC50 for this one: C[C@H]1CCN1c1nc(OC[C@@]23CCCN2C[C@H](F)C3)nc2c(F)c(-c3ccc(F)c4sc(N)c(C#N)c34)c(C(F)(F)F)cc12
// result 6.00 to 7.00

* * *

# testedSystem: Avi-KRAS G12R (1-169) GppNHp/RAF1 RBD-3xFLAG (52-151) (Homo sapiens, UniProt P01116, G12R)
# Construct: Avi-KRAS G12R (1-169)
# Sequence (P01116 1-169 isoform P01116-2 G12R): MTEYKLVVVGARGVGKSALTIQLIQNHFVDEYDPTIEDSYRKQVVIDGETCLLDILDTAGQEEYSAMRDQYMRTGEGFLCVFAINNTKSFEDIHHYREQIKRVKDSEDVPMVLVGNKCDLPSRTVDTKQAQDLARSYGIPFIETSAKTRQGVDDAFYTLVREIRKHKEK
# protocolText: Raf1-KRAS G12R-GppNHP disruption HTRF assay (Biological Example 1)
# Type: binding
# conditionInfo: KRAS G12R, GppNHp-loaded; Table 11
measurementType: IC50

Consider the reported IC50 for these molecules:
| molecule | IC50 |
| --- | --- |
| CNC(=O)CN(C)c1nc(OC[C@@]23CCCN2C[C@H](F)C3)nc2c(F)c(-c3ccc(F)c4sc(N)c(C#N)c34)c(C(F)(F)F)cc12 | 100 to 1000 nM |
| CCN(c1nc(OC[C@@]23CCCN2C[C@H](F)C3)nc2c(F)c(-c3ccc(F)c4sc(N)c(C#N)c34)c(C(F)(F)F)cc12)[C@H]1C[C@@H](O)C1 | 100 to 1000 nM |
| N#Cc1c(N)sc2c(F)ccc(-c3c(C(F)(F)F)cc4c(N5CCC[C@H](O)C5)nc(OC[C@@]56CCCN5C[C@H](F)C6)nc4c3F)c12 | 100 to 1000 nM |
| N#Cc1c(N)sc2c(F)ccc(-c3c(C(F)(F)F)cc4c(N5CC6CCC(C5)C6CO)nc(OC[C@@]56CCCN5C[C@H](F)C6)nc4c3F)c12 (stereo partly drawn) | 100 to 1000 nM |
| CS(=O)(=O)N1CCN(c2nc(OC[C@@]34CCCN3C[C@H](F)C4)nc3c(F)c(-c4ccc(F)c5sc(N)c(C#N)c45)c(C(F)(F)F)cc23)CC1 | 1000 to 10000 nM |

Below: the item to evaluate.
// query Identify the reported IC50 for the following entry. N#Cc1c(N)sc2c(F)ccc(-c3c(C(F)(F)F)cc4c(N5CCn6nccc6C5)nc(OC[C@@]56CCCN5C[C@H](F)C6)nc4c3F)c12
// result 100 to 1000 nM

* * *

Entries and their pIC50
# testedSystem: Avi-KRAS G12R (1-169) GppNHp/RAF1 RBD-3xFLAG (52-151) (Homo sapiens, UniProt P01116, G12R)
# Construct: Avi-KRAS G12R (1-169)
# protocolText: Raf1-KRAS G12R-GppNHP disruption HTRF assay (Biological Example 1)
# Assay type: binding
# conditionInfo: KRAS G12R-GppNHp/RAF1 RBD HTRF
pIC50: −log10 of the molar value.

| compound | testedSystem | pIC50 |
| --- | --- | --- |
| CC(=O)N1C[C@H](O)[C@@H](N(C)c2nc(OC[C@@]34CCCN3C[C@H](F)C4)nc3c(F)c(-c4ccc(F)c5sc(N)c(C#N)c45)c(C(F)(F)F)cc23)C1 [Compound 347] | Avi-KRAS G12R (1-169) GppNHp/RAF1 RBD-3xFLAG (52-151) (Homo sapiens, UniProt P01116, G12R) | 6.00 to 7.00 |

// query Quote pIC50 reported for [2H]C1([2H])CN2C[C@H](F)C[C@]2(COc2nc(N(CC)[C@H]3CCN(C(=O)C(C)C)C3)c3cc(C(F)(F)F)c(-c4ccc(F)c5sc(N)c(C#N)c45)c(F)c3n2)C1 [Compound 565] please.
// result > 7.00

// query Let me know recorded pIC50 for CN1CCN(c2nc(OC[C@@]34CCCN3C[C@H](F)C4)nc3c(F)c(-c4ccc(F)c5sc(N)c(C#N)c45)c(C(F)(F)F)cc23)CCS1(=O)=O [Compound 311] , thanks.
// result < 5.00

// query Tell me pIC50 reported for C[C@@H]1Cn2nc(C(=O)N(C)C)cc2CN1c1nc(OC[C@@]23CCCN2C[C@H](F)C3)nc2c(F)c(-c3ccc(F)c4sc(N)c(C#N)c34)c(C(F)(F)F)cc12 [Compound 510]
// result 6.00 to 7.00

// query State its pIC50 for this compound: C[C@@H]1CN(c2nc(OC[C@@]34CCCN3C[C@H](F)C4)nc3c(F)c(-c4ccc(F)c5sc(N)c(C#N)c45)c(C(F)(F)F)cc23)Cc2cc(C(=O)N(C)C)nn21 [Compound 423]
// result 6.00 to 7.00

// query Tell us which pIC50 value is on record for N#Cc1c(N)sc2c(F)ccc(-c3c(C(F)(F)F)cc4c(N5CCc6[nH]ncc6C5)nc(OCC56CCCN5CC(F)C6)nc4c3F)c12 (centres unmarked) [Compound 449]
// result 5.00 to 6.00

// query Output pIC50 of N#Cc1c(N)sc2c(F)ccc(-c3c(C(F)(F)F)cc4c(N5CCO[C@@H](CO)C5)nc(OC[C@@]56CCCN5C[C@H](F)C6)nc4c3F)c12 [Compound 282]
// result 6.00 to 7.00

// query Find the measured pIC50 of CC(=O)N1CC(N(C)c2nc(OCC34CCCN3CC(F)C4)nc3c(F)c(-c4ccc(F)c5sc(N)c(C#N)c45)c(C(F)(F)F)cc23)CC1C (centres unmarked) [Compound 291] and report it.
// result 6.00 to 7.00

// query Indicate its recorded pIC50; the compound in question is CCOC(=O)N1CC[C@H](N(CC)c2nc(OC[C@@]34CCCN3C[C@H](F)C4)nc3c(F)c(-c4ccc(F)c5sc(N)c(C#N)c45)c(C(F)(F)F)cc23)C1 [Compound 467]
// result > 7.00

// query For N#Cc1c(N)sc2c(F)ccc(-c3c(C(F)(F)F)cc4c(N5CCO[C@@H]6C[C@@H]65)nc(OC[C@@]56CCCN5C[C@H](F)C6)nc4c3F)c12 [Compound 411] , write its pIC50.
// result 6.00 to 7.00

// query Report pIC50 for CCN(c1nc(OC[C@@]23CCCN2C[C@H](F)C3)nc2c(F)c(-c3ccc(F)c4sc(N)c(C#N)c34)c(C(F)(F)F)cc12)[C@@H]1C[C@H]2CCC(=O)N2C1 (atropisomer, axis not shown) [Compound 532]
// result 6.00 to 7.00

// query Please indicate pIC50 recorded for CN(C)C(=O)[C@H]1CC[C@@H](N(C)c2nc(OC[C@@]34CCCN3C[C@H](F)C4)nc3c(F)c(-c4ccc(F)c5sc(N)c(C#N)c45)c(C(F)(F)F)cc23)C1 [Compound 497]
// result 5.00 to 6.00

// query # return recorded pIC50 for input C[C@H]1C[C@H](N(c2nc(OC[C@@]34CCCN3C[C@H](F)C4)nc3c(F)c(-c4ccc(F)c5sc(N)c(C#N)c45)c(C(F)(F)F)cc23)C2CC2)CN1C(=O)C1CC1 [Compound 474]
// result 6.00 to 7.00

// query Supply reported pIC50 belonging to this compound: CC[C@@H]1[C@H](N(C)c2nc(OC[C@@]34CCCN3C[C@H](F)C4)nc3c(F)c(-c4ccc(F)c5sc(N)c(C#N)c45)c(C(F)(F)F)cc23)CCN1C(=O)C(C)C [Compound 433]
// result 5.00 to 6.00
